# System: P. falciparum 3D7 growth, pLDH absorbance
# test.summary: blood-stage malaria parasite growth potency – strain 3D7, dose response (AID 2305)
pIC50: −log10 of the molar value.
Measured pIC50 values are reported for all entries that follow.

>  <compound>
COc1ccc(CNCc2ccsc2)cc1-c1ccc(S(=O)(=O)NCCN2CCCC2)s1

>  <assay.system>
P. falciparum 3D7 growth, pLDH absorbance

>  <pIC50>
6.11

$$$$
>  <compound>
O=C(Nc1nc2cc(S(=O)(=O)NCc3ccc(Cl)c(Cl)c3)ccc2n1CCCn1ccnc1)c1ccc(Cl)cc1

>  <assay.system>
P. falciparum 3D7 growth, pLDH absorbance

>  <pIC50>
6.14

$$$$
>  <compound>
Cn1cncc1C(=O)Nc1cccc(-c2cccc(-c3nc4ccccc4[nH]3)c2)c1

>  <assay.system>
P. falciparum 3D7 growth, pLDH absorbance

>  <pIC50>
6.19

$$$$
>  <compound>
CC1(C)N=C(N)NC(NOCc2ccc(Cl)c(Cl)c2)=N1

>  <assay.system>
P. falciparum 3D7 growth, pLDH absorbance

>  <pIC50>
6.64

$$$$
>  <compound>
Oc1ccc(-c2cncc(NCc3ccc(F)c(F)c3)c2)cc1

>  <assay.system>
P. falciparum 3D7 growth, pLDH absorbance

>  <pIC50>
6.11

$$$$
>  <compound>
O=C(NCCCN1CCN(c2cccc(Cl)c2)CC1)c1ccc(-c2nc3cc(Cl)c(Cl)cc3[nH]2)c(F)c1

>  <assay.system>
P. falciparum 3D7 growth, pLDH absorbance

>  <pIC50>
6.08

$$$$
>  <compound>
Cc1cccc2[nH]c(-c3ccc(-c4cccc(C(=O)N5CCCCC5C(C)O)c4)s3)nc12 (stereo not given)

>  <assay.system>
P. falciparum 3D7 growth, pLDH absorbance

>  <pIC50>
6.19

$$$$
>  <compound>
Nc1nc(N)c2c(ccc3c2ccn3CC2CC2)n1

>  <assay.system>
P. falciparum 3D7 growth, pLDH absorbance

>  <pIC50>
6.68

$$$$
>  <compound>
O=S(=O)(c1cc(Cl)ccc1Cl)N1CCCCC(c2ccc(C(F)(F)F)cc2)=N1

>  <assay.system>
P. falciparum 3D7 growth, pLDH absorbance

>  <pIC50>
6.00

$$$$
>  <compound>
Clc1ccc2c(NCCNc3ccnc4cc(Cl)ccc34)ccnc2c1

>  <assay.system>
P. falciparum 3D7 growth, pLDH absorbance

>  <pIC50>
6.40

$$$$

---

Measured pIC50 values are reported for all entries that follow.
# Test system: P. falciparum 3D7 growth, pLDH absorbance
# test.summary: blood-stage malaria parasite growth potency – strain 3D7, dose response (AID 2305)
pIC50: −log10 of the molar value.

>  <compound>
Nc1ccc2c(N)c3ccccc3nc2c1

>  <pIC50>
6.09

$$$$
>  <compound>
CCOc1ccc2c(NN=Cc3cccc(OC)c3)cc(C)nc2c1

>  <pIC50>
6.92

$$$$
>  <compound>
Nc1nc(N)c2cc(S(=O)(=O)c3ccc4ccccc4c3)ccc2n1

>  <pIC50>
7.40

$$$$
>  <compound>
COCCN1CCN(Cc2cccc(-c3ccc(-c4nc5ccccc5[nH]4)cc3)c2)CC1

>  <pIC50>
6.12

$$$$
>  <compound>
CC(C)NCc1ccc(-c2ccc(NC(=O)c3ccc(Cl)cc3)cc2)cc1

>  <pIC50>
6.04

$$$$
>  <compound>
Cc1cc(C)cc(-n2c(C)cc(C=C3SC(=Nc4ccc(Cl)cc4)NC3=O)c2C)c1

>  <pIC50>
7.15

$$$$
>  <compound>
Cc1[nH]c(C)c(-c2ccc(OCCCCSc3ccncc3)cc2)c(=O)c1Br

>  <pIC50>
6.60

$$$$
>  <compound>
COc1ccc(C2(CNCC(O)c3cccc([N+](=O)[O-])c3)CCCC2)cc1OC (stereo unspecified)

>  <pIC50>
6.05

$$$$
>  <compound>
CNC(=O)CC(=O)NCCc1ccc(Cl)cc1

>  <pIC50>
6.09

$$$$
>  <compound>
CCOC(=O)c1sc(C(C)Nc2ccccc2)nc1-c1ccccc1 (stereo unspecified)

>  <pIC50>
6.48

$$$$
>  <compound>
CN1CCN(Cc2ccc(-c3ccc4c(Nc5cc(O)c(F)cc5Cl)ccnc4c3)o2)CC1

>  <pIC50>
6.89

$$$$
>  <compound>
O=C(Nc1ccc(Cn2ncc(N3CCCNCC3)c(Cl)c2=O)cc1)Nc1ccc(SC(F)(F)F)cc1

>  <pIC50>
6.28

$$$$
>  <compound>
CC(C)Cc1csc(NC(=O)C=Cc2ccco2)c1C(=O)O

>  <pIC50>
6.52

$$$$
>  <compound>
CCCN(CCCCCCN(CCC)CCc1ccc(O)c(O)c1)CCc1ccc(O)cc1

>  <pIC50>
6.00

$$$$
>  <compound>
Cc1[nH]c2ccccc2c1C1=CCN(CCCCC23CCCc4cccc(c42)NC3=O)CC1 (stereo unspecified)

>  <pIC50>
6.64

$$$$
>  <compound>
CC(C)Cn1c(Sc2ccc(C#N)c([N+](=O)[O-])c2)nnc1-c1cccs1

>  <pIC50>
5.97

$$$$
>  <compound>
O=C(NC1CC1)c1ccc(N2CCCC(COc3ccccc3F)C2)nc1 (stereo unspecified)

>  <pIC50>
6.05

$$$$
>  <compound>
CS(=O)(=O)CCNCc1cccc(-c2ccc3c(Nc4ccc(Oc5ccccc5)cc4)ccnc3c2)c1

>  <pIC50>
6.16

$$$$
>  <compound>
CC(C)(C)c1ccc(/C=C/C(=O)NCCCCCN2CCC(c3c[nH]c4ccccc34)CC2)cc1

>  <pIC50>
5.96

$$$$
>  <compound>
Cc1ccc(NC(=O)c2ccc(CN3CCCN(CC4CCCCC4)CC3)cc2)cc1C

>  <pIC50>
5.99

$$$$
>  <compound>
C(=NNc1nc2ccccc2[nH]1)c1ccccc1OCc1ccccc1

>  <pIC50>
6.59

$$$$

---

# System: P. falciparum 3D7 growth, pLDH absorbance
# test.summary: blood-stage malaria parasite growth potency – strain 3D7, dose response (AID 2305)

>  <compound>
CN(C)c1ccc(-c2ccc(C(=O)NC3CCN(Cc4ccc(C(C)(C)C)cc4)CC3)s2)cc1

>  <output.unit>
nM

>  <IC50>
970

$$$$
>  <compound>
COC(=O)CN(C(=O)/C=C/c1ccc(Cl)c(Cl)c1)C1CCC(CN2CCC(c3c[nH]c4ccccc34)CC2)CC1 (centres undefined)

>  <output.unit>
nM

>  <IC50>
510

$$$$
>  <compound>
CN(c1ccccc1)S(=O)(=O)c1cccc(NC(=O)c2ccc(-n3ccnc3)c([N+](=O)[O-])c2)c1

>  <output.unit>
nM

>  <IC50>
1130

$$$$
>  <compound>
Cc1c(C(=O)NCc2ccncc2)sc2nc(-c3cccc([N+](=O)[O-])c3)cn12

>  <output.unit>
nM

>  <IC50>
910

$$$$

---

# Tested on: P. falciparum 3D7 growth, pLDH absorbance
# test.summary: blood-stage malaria parasite growth potency – strain 3D7, dose response (AID 2305)
Measured IC50 values are reported for all entries that follow.
test.readout: IC50 (nM)

>  <compound>
CN(CCCc1c[nH]c2ccccc12)CCC1CCC(NC(=O)/C=C/c2ccc(Cl)c(Cl)c2)CC1 (centres undefined)

>  <data.value>
650

$$$$
>  <compound>
CN1CCN(c2ccnc3ccc(NC(=O)Nc4ccc(-c5ccccc5)cc4)cc23)CC1

>  <data.value>
780

$$$$
>  <compound>
Cc1ccc(CC(C)(C)NCC(O)c2cccc(C(F)(F)F)c2)cc1 (centres undefined)

>  <data.value>
840

$$$$
>  <compound>
Cc1cnc2ccc(NS(=O)(=O)c3ccc4c(Cl)cccc4c3)cc2c1N1CCNCC1

>  <data.value>
750

$$$$
>  <compound>
O=C(Cc1cccc(Cl)c1)Nc1cccc(-c2c[nH]c3nc(Nc4ccccc4)ncc23)c1

>  <data.value>
680

$$$$
>  <compound>
CN=C(N)c1ccc(NC(=O)Nc2ccc(C(N)=NC)cc2)cc1

>  <data.value>
580

$$$$
>  <compound>
O=C(CCCCCCc1ccccc1)Nc1ccc2nc3c(c(NCc4ccccc4)c2c1)CCCC3

>  <data.value>
360

$$$$
>  <compound>
Cn1ccnc1CNC(=O)c1ccc(-c2ccc(-c3nc4ccc(C(F)(F)F)cc4[nH]3)s2)cc1

>  <data.value>
700

$$$$
>  <compound>
Cc1cc(Nc2ncc(C#N)c(Nc3ccccc3C(N)=O)n2)ccc1N1CCN(C)CC1

>  <data.value>
10

$$$$
>  <compound>
O=C(NCc1ccccc1)Nc1cccc(-c2cccc(-c3nc4ccc(C(F)(F)F)cc4[nH]3)c2)c1

>  <data.value>
260

$$$$
>  <compound>
COc1ccc2ncc(F)c(CCN3CC[C@H](NC(=O)c4ccc5c(n4)NC(=O)CS5)[C@H](O)C3)c2n1

>  <data.value>
950

$$$$
>  <compound>
CCc1cn(CCS(C)(=O)=O)c2ccc(C(=O)N[C@@H](Cc3ccccc3)[C@H](O)CNC(C)(C)CCCC(C)C)cc12

>  <data.value>
880

$$$$
>  <compound>
CC(Cc1ccc(NC(=O)[C@@H](C)NCCc2cccc(Cl)c2)cc1)NCCc1cccc(Cl)c1 (some centres undefined)

>  <data.value>
780

$$$$
>  <compound>
CCN(CCO)CCc1cccc(Nc2nccc(-c3c(-c4ccc(NC(=O)N(CC)CC)cc4)nn4ccccc34)n2)c1

>  <data.value>
1110

$$$$
>  <compound>
Cc1cccc2[nH]cc(C3CCN(CCC4CCN(C(=O)/C=C/c5ccc(Cl)c(Cl)c5)CC4)CC3)c12

>  <data.value>
1220

$$$$
>  <compound>
COc1ccc2cc(C(=O)Nc3ccc4c(c3)CCN(C3CCC3)CC4)ccc2c1

>  <data.value>
840

$$$$
>  <compound>
CN(C)C[C@H](O)[C@@H](c1ccccc1)c1ccc(Cl)cc1

>  <data.value>
50

$$$$
>  <compound>
CCCC(=O)NC(c1cccs1)c1cc(Cl)c2cccnc2c1O (centres undefined)

>  <data.value>
850

$$$$
>  <compound>
NC(N)=Nc1ccc(C(=O)O)c(O)c1

>  <data.value>
1030

$$$$
